system: NCI-H1975; assay: Antiproliferative activity against human NCI-H1975 cells assessed as inhibition of cell growth measured after 72 hrs by CCK8 assay; format: functional, cell-based; settings: NCI-H1975, 72 h
property: IC50 (µM)

A. COc1cc(N2CCC(N3CCN(C)CC3)CC2)ccc1Nc1ncc(Cl)c(Nc2ccccc2P(C)(C)=O)n1
B. CCS(=O)(=O)N1CCC(c2nc(-c3ccc(F)cc3)c(-c3ccnc(Nc4ccc(N5CCN(C)CC5)cc4)n3)s2)CC1
C. CCS(=O)(=O)N1CCC(c2nc(-c3ccc(F)cc3)c(-c3ccnc(Nc4ccc(N5CCN(C)CC5)c(C)c4)n3)s2)CC1
Problem: Hey, quick one: sort these by IC50, largest value first please. As an answer, provide the labels arranged in the order called for.
Result: A, B, C

P. CC(=O)Nc1nc(-c2ccc(F)cc2)c(-c2ccnc(Nc3ccc4c(ccn4CCN(C)C)c3)n2)s1
Q. CCS(=O)(=O)N1CCC(c2nc(-c3ccc(F)cc3)c(-c3ccnc(Nc4ccc5c(ccn5CCN(C)C)c4)n3)s2)CC1
Problem: Consider P and Q . Which of these has its IC50 at a higher number? Record your answer as the label of the chosen record.
Result: P

* * *

assay: MRT (0 to infinity) in Sprague-Dawley rat at 5 mg/kg, iv measured upto 24 hrs by HPLC-MS/MS analysis; format: ADME, organism-based; details: in vivo
property: MRT inf (h)
Quick reminder: number only, in h, skip the unit.

For `CCS(=O)(=O)N1CCC(c2nc(-c3ccc(F)cc3)c(-c3ccnc(Nc4ccc5c(ccn5CCN(C)C)c4)n3)s2)CC1` the molecule record lists MRT inf as 4.37

* * *

target: Epidermal growth factor receptor (Homo sapiens, UniProt P00533, L858R/T790M); assay: Inhibition of EGFR L858R/T790M double mutant (unknown origin) using polyE4Y1 as substrate incubated for 5 mins with compound followed by substrate addition measured after 60 mins in presence of ATP by ADP-Glo reagent based assay
Sequence (P00533 25-1210 T790M/L858R limits assumed): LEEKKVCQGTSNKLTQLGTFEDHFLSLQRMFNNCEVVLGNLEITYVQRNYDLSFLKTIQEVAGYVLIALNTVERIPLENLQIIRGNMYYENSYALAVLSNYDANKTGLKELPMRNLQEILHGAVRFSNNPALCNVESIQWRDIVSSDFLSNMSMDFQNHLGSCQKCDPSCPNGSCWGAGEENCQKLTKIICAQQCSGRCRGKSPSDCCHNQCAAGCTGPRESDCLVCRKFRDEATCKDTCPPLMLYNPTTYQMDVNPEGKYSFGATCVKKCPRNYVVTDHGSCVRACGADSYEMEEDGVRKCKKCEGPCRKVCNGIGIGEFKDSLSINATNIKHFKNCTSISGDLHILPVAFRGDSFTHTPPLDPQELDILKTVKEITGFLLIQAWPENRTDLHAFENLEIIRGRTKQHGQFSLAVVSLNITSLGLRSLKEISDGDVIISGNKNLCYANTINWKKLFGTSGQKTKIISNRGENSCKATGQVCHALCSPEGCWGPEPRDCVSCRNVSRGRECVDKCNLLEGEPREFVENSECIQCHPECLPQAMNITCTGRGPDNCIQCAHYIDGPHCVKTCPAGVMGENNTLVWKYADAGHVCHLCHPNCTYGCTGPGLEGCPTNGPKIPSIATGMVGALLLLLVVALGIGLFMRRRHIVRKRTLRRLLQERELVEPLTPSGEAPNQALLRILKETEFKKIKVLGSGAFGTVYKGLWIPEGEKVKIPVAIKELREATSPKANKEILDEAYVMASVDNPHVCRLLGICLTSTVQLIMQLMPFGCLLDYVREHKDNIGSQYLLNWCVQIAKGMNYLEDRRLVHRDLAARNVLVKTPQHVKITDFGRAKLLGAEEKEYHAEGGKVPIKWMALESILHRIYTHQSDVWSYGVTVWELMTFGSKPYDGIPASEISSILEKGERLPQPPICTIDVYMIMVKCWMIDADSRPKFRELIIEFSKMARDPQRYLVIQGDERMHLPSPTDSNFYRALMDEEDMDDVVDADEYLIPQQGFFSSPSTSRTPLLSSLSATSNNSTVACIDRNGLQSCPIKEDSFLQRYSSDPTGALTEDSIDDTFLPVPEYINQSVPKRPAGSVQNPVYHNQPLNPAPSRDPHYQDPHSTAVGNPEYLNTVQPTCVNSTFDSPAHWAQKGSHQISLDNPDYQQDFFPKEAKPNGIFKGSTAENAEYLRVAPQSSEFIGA
property: IC50 (nM)

>>> print(df.to_string())
                            molecularstring  unitlabel  experimentalresult
0  CC(=O)Nc1nc(-c2ccc(F)cc2)c(-c2ccnc(Nc3ccc4c(ccn4CCN(C)C)c3)n2)s1         nM                 4.9

I. CCS(=O)(=O)N1CCC(c2nc(-c3ccc(F)cc3)c(-c3ccnc(Nc4ccc5c(ccn5CCN(C)C)c4)n3)s2)CC1
II. CCS(=O)(=O)N1CCC(c2nc(-c3ccc(F)cc3)c(-c3ccnc(Nc4ccc(N5CCN(C)CC5)cc4)n3)s2)CC1
Problem: Consider I and II . Which of these has its IC50 at a higher number? Record your answer as the label of the chosen record.
Result: I
(I: 21 nM, II: 8 nM)

* * *

assay: AUC (0 to infinity) in Sprague-Dawley rat at 50 mg/kg, po measured upto 24 hrs by HPLC-MS/MS analysis; type: ADME, organism-based; parameters: dose 50 mg/kg, time < 24 hrs, route po; conditions: in vivo
property: AUC(0-inf) (ng·h/mL)
Quick reminder: number only, in ng·h/mL, skip the unit.

For `CCS(=O)(=O)N1CCC(c2nc(-c3ccc(F)cc3)c(-c3ccnc(Nc4ccc5c(ccn5CCN(C)C)c4)n3)s2)CC1` the molecule record lists AUC(0-inf) as 4780
